Provenance of the data: patent US20040087571A1

Each entry below lists one item and its recorded melting point value.
measurement.kind: melting point

> print(dat)
                                    compound  measurement.kind    measurement
 1  CC(C)(F)CC[C@H](C[C@H](O)[C@H](Cc1ccccc1)NC(=O)c1cnc2ccccc2n1)C(=O)NCCc1ccccn1 [Example 205]     melting point  155 to 156 °C
 2  CC(C)C[C@H](C[C@H](O)C(Cc1ccccc1)NC(=O)c1cnc2ccccc2c1)C(=O)NCCO (some centres unmarked) [Example 33]     melting point  158 to 162 °C
 3  NC(=O)[C@@H](C[C@H](O)[C@H](Cc1ccccc1)NC(=O)c1cnc2ccccc2n1)C1(O)CCCCC1 [Example 260]     melting point  210 to 211 °C
 4  CC(C)CC[C@H](C[C@H](O)[C@H](Cc1cscn1)NC(=O)c1cnc2ccccc2n1)C(N)=O [Example 178]     melting point  195 to 196 °C
 5  CC(C)(O)CC[C@H](C[C@H](O)[C@H](Cc1cccc2ccccc12)NC(=O)c1cnc2ccccc2n1)C(N)=O [Example 324]     melting point  155 to 158 °C
 6  CNC(=O)[C@H](CC(C)C)C[C@H](O)[C@H](CC1CCC(F)(F)CC1)NC(=O)c1cnc2ccccc2n1 [Example 108]     melting point    95 to 98 °C
 7  NC(=O)[C@@H](C[C@H](O)[C@H](Cc1ccccc1)NC(=O)c1cnc2ccccc2n1)C1CCCCC1 [Example 168]     melting point  222 to 223 °C
 8  CC(C)CC[C@H](C[C@H](O)[C@H](Cc1ccccc1F)NC(=O)c1cnc2ccccc2n1)C(N)=O [Example 175]     melting point  213 to 215 °C
 9  NC(=O)[C@H](CC1CCC(F)(F)CC1)C[C@H](O)[C@H](Cc1ccccc1)NC(=O)c1cnc2ccccc2n1 [Example 133]     melting point  174 to 176 °C
10  CC(C)C[C@H](C[C@H](O)[C@H](CC1CCCCC1)NC(=O)c1cnc2ccccc2c1)C(N)=O [Example 20]     melting point  186 to 188 °C
11  CNC(=O)[C@H](CCC(C)(C)F)C[C@H](O)[C@H](Cc1ccc(F)cc1)NC(=O)c1cnc2ccccc2n1 [Example 154]     melting point  145 to 147 °C
12  COc1ccc(CNC(=O)[C@H](CCC(C)(C)F)C[C@H](O)[C@H](Cc2ccccc2)NC(=O)c2cnc3ccccc3n2)cc1 [Example 236]     melting point  114 to 115 °C
13  CC(C)(F)CC[C@H](C[C@H](O)[C@H](Cc1cccc(F)c1)NC(=O)c1cnc2ccccc2n1)C(N)=O [Example 245]     melting point  225 to 227 °C
14  NC(=O)[C@@H](C[C@H](O)[C@H](Cc1ccccc1)NC(=O)c1cnc2ccccc2c1)C1CCCCC1 [Example 261]     melting point         231 °C
15  Cc1cccc(C[C@H](C[C@H](O)[C@H](Cc2ccccc2)NC(=O)c2cnc3ccccc3n2)C(N)=O)c1 [Example 293]     melting point  178 to 179 °C
16  CCSCCNC(=O)[C@H](CCC(C)(C)F)C[C@H](O)[C@H](Cc1ccccc1)NC(=O)c1cnc2ccccc2n1 [Example 218]     melting point    78 to 79 °C
17  NC(=O)[C@H](Cc1ccccc1F)C[C@H](O)[C@H](Cc1ccccc1)NC(=O)c1cnc2ccccc2n1 [Example 280]     melting point  171 to 173 °C
18  NC(=O)[C@H](Cc1ccc(OC(F)(F)F)cc1)C[C@H](O)[C@H](Cc1ccccc1)NC(=O)c1cnc2ccccc2n1 [Example 193]     melting point  184 to 187 °C
19  COc1ccc(CNC(=O)[C@H](CCC(C)(C)F)C[C@H](O)[C@H](Cc2ccccc2)NC(=O)c2cnc3ccccc3n2)cc1OC [Example 206]     melting point  162 to 164 °C
20  CC(C)CCNC(=O)[C@H](CC(C)C)C[C@H](O)[C@H](Cc1ccccc1)NC(=O)c1cnc2ccccc2c1 [Example 48]     melting point  153 to 154 °C

----------
Each entry below lists one item and its recorded melting point value.
measurement.kind: melting point

> print(dat)
                                    compound  measurement.kind        measurement
 1  NC(=O)[C@H](Cc1ccc(F)cc1)C[C@H](O)[C@H](Cc1ccccc1)NC(=O)c1cnc2ccccc2n1 [Example 194]     melting point      164 to 166 °C
 2  NC(=O)[C@H](Cc1ccccc1)C[C@H](O)[C@H](Cc1ccccc1)NC(=O)c1cnc2c(F)c(F)ccc2c1 [Example 273]     melting point      233 to 235 °C
 3  CCC(CC)[C@H](C[C@H](O)[C@H](Cc1ccccc1)NC(=O)c1cnc2ccccc2n1)C(N)=O [Example 203]     melting point      215 to 218 °C
 4  CC1CCC(O)([C@H](C[C@H](O)[C@H](Cc2ccccc2)NC(=O)c2cnc3ccccc3n2)C(N)=O)CC1 (some centres unmarked) [Example 278]     melting point      230 to 233 °C
 5  NC(=O)C1(C[C@H](O)[C@H](Cc2ccccc2)NC(=O)c2cnc3ccccc3n2)Cc2ccccc2C1 [Example 164]     melting point       90 to 100 °C
 6  CNC(=O)[C@H](CC1CCCCC1)C[C@H](O)[C@H](CC1CCCCC1)NC(=O)c1cncc2ccccc12 [Example 62]     melting point    220.5 to 224 °C
 7  NC(=O)[C@@H](C[C@H](O)[C@H](Cc1ccccc1)NC(=O)c1cnc2ccccc2n1)C1(O)C2CCCC1CCC2 (some centres unmarked) [Example 296]     melting point      268 to 269 °C
 8  O=C(N[C@@H](Cc1ccccc1)[C@@H](O)C[C@H](C(=O)NO)C1(O)CCCCCC1)c1cnc2ccccc2n1 [Example 291]     melting point      118 to 119 °C
 9  CC(C)(F)CC[C@H](C[C@H](O)[C@H](Cc1ccccc1)NC(=O)c1cnc2ccccc2n1)C(=O)NCCc1c[nH]c2ccccc12 [Example 230]     melting point      107 to 108 °C
10  CNC(=O)[C@H](CC1CCCCC1)C[C@H](O)[C@H](CC1CCCCC1)NC(=O)c1cnc2ccccc2c1 [Example 21]     melting point  170.5 to 172.5 °C
11  CC1(C)CCC(O)([C@H](C[C@H](O)[C@H](Cc2ccccc2)NC(=O)c2cnc3ccccc3n2)C(N)=O)CC1 [Example 304]     melting point      210 to 211 °C
12  NC(=O)[C@@H](C[C@H](O)[C@H](Cc1ccccc1)NC(=O)c1cnc2ccccc2n1)C1(O)CCCC1 [Example 277]     melting point      192 to 195 °C
13  CC(C)(F)CC[C@H](C[C@H](O)[C@H](Cc1ccccc1)NC(=O)c1cnc2ccccc2n1)C(=O)NCc1cccs1 [Example 213]     melting point      174 to 175 °C
14  O=C(N[C@@H](Cc1ccccc1)[C@@H](O)C[C@@H](Cc1ccccc1)C(=O)NO)c1cnc2ccccc2n1 [Example 276]     melting point      190 to 192 °C
15  CC(C)CC[C@H](C[C@H](O)[C@H](Cc1cccc(F)c1)NC(=O)c1cnc2ccccc2n1)C(N)=O [Example 135]     melting point    191 to 191.5 °C
16  NC(=O)[C@@H](C[C@H](O)[C@H](Cc1ccccc1)NC(=O)c1cnc2ccccc2n1)C1CCCCC1 [Example 169]     melting point      178 to 180 °C
17  NC(=O)[C@@H](C[C@H](O)[C@H](Cc1ccccc1)NC(=O)c1cnc2ccccc2n1)C1(O)CCCCC1 [Example 243]     melting point      187 to 189 °C
